# Test system: HCT-116 colon
# run.description: NCI tumour cell line growth inhibition, 48 h
measurement.kind: TGI

compound	TGI
CC(=O)NC(CC(C)C)C(=O)NC(CC(C)C)C(=O)NC(C=O)CCCN=C(N)N (configuration not stated)	> 100 µM
COc1cc(-c2csc(NC(=O)Nc3ccc(Cl)c(C(F)(F)F)c3)n2)cc(OC)c1OC	7.93 µM
CC(C)=CC(=O)OC1C(CO)OC(Oc2cc(O)c3c(=O)cc(-c4ccc(O)c(O)c4)oc3c2)C(OC2OC(C)C(O)C(O)C2O)C1O (configuration not stated)	> 100 µM
O=C(O)CSc1ccc(N=C=S)cc1	> 100 µM
CC1=C(c2cc(C(=O)Nc3cc(C)ccc3C)nc(N)n2)Sc2ccccc2N1	> 100 µM
C[Si](C)(c1ccccc1)C1CC(=O)CC(=O)C1	> 100 µM

Exam item: Item under review: CCCNC(=S)N=Nc1c(O)[nH]c2ccccc12 . Reported TGI?
Marked response: > 100 µM

Exam item: // next record CN(C(=O)CCC(=O)O)c1ccccc1C(=O)O
Marked response: > 100 µM

----------
# Tested on: NCI-H226 lung
# run.description: NCI tumour cell line growth inhibition, 48 h
Reported TGI values are given for each entry in this list.
Please give a number only; it is taken to be in µM.

Below, each entry is followed by its recorded TGI result.
input.smiles	scale.unit	TGI
O=[N+]([O-])c1ccc2c(c1)C(=NO)c1cc([N+](=O)[O-])ccc1-2	µM	29.1
COc1ccc(N2CCN(C(=O)c3ccc(C(F)(F)F)nc3Nc3cc(Cl)ccc3C)CC2)cc1	µM	36.3
Cc1cc2c3ccccc3nc2c2cc[nH]c(C)c12	µM	28.2
CCOC(=O)c1ccc(NC(=O)O/N=C(/Cl)CC)cc1	µM	40

Exam item: Item under review: Cc1cc(N(CCNc2ccnc3cc(Cl)ccc23)Cc2cccs2)nc(Cl)n1 . Reported TGI?
Marked response: 3.83

----------
Reported TGI values are given for each entry in this list.
# Test system: HCC-2998 colon
# run.description: NCI tumour cell line growth inhibition, 48 h

Below, each entry is followed by its recorded TGI result.
compound	assay.value
N#CC1=C(N)Oc2c(ccc3ccccc23)C1c1cccs1 (stereo unspecified)	3.89 µM
COC(=O)C(Cc1ccc2c(c1)CCCC2)Cc1cc2c(cc1C(O)OC)CCC2 (stereo unspecified)	> 100 µM
CN(C(=O)CCC(=O)O)c1ccccc1C(=O)O	> 100 µM
O=C(OCCOC(=O)c1ccc2c(c1)C1(SCCS1)c1ccccc1-2)c1ccc2c(c1)C1(SCCS1)c1ccccc1-2	> 100 µM
NC1=NS(=O)(=O)Nc2nc(-c3ccc(Cl)cc3)[nH]c21	> 100 µM
COc1ccc(OC)c2c1C(=O)C(=O)C(Cl)=C2O	> 100 µM
C=C1C(=O)O[C@H]2[C@H]1CC/C(COC(=O)/C=C\C(=O)NCc1ccc(Cn3c(=O)sn(CCCI)c3=O)cc1)=C\CC[C@@]1(C)O[C@@H]21	1.66 µM
COc1ccc2c(ccc3c(C(=O)NCCN(C)CCNC(=O)c4cn(C)c5c4ccc4cc(OC)ccc45)cn(C)c32)c1	2.79 µM

Exam item: Item under review: COC(=O)c1cc(C)ccc1/C=C1\Cc2cccc(C)c2C1=O . Reported TGI?
Marked response: > 100 µM

Exam item: // next record CCC1(O)CC(OC2CC(N(C)C)C(OC3CC(O)C(OC4CCC(=O)C(C)O4)C(C)O3)C(C)O2)c2c(cc3c(c2O)C(=O)c2c(O)ccc(O)c2C3=O)C1C(=O)OC (stereo unspecified)
Marked response: < 0.0112 µM

Exam item: // next record CC[C@@]1(O)C(=O)OCc2c1cc1n(c2=O)Cc2c-1nc1ccccc1c2Cl
Marked response: 9.58 µM

Exam item: // next record COc1cc2c(oc(=O)c3cc(C)cc(OC)c32)c2c(C3OC(C)C(O)C(C)(O)C3O)ccc(O)c12 (stereo unspecified)
Marked response: 1.76 µM

Exam item: // next record O=CN/N=C/c1ccc(Cl)c([N+](=O)[O-])c1
Marked response: 19.6 µM

Exam item: // next record CC1=C(c2cc(C(=O)Nc3cc(C)ccc3C)nc(N)n2)Sc2ccccc2N1
Marked response: > 100 µM

Exam item: // next record O=Cc1cn(Cc2ccc(Cl)cc2)c2ccccc12
Marked response: > 100 µM
